Test system: 653999-131-R-J2-PDC complex spheroids, growth % test/control
procedure text: Anticancer human tumor 653999-131-R-J2-PDC patient-derived lung adenocarcinoma cell line growth inhibition [AhR]
run conditions: second compound 0.316 µM; first compound 3.16 µM; stronger effect = lower value
One threshold, 80%, splits the recorded viability, T/C values: lower ones are Y, equal or higher ones are N.

[in] Given the entry CC(C)c1c(-c2ccccc2)nc2c(C#N)c[nH]n2c1=O + CC(CO)NC(=O)c1cc(-c2ccc(Cl)cc2)nn(-c2cnn(C)c2)c1=O , would its reported viability, T/C be below 80%?
[out] N

[in] Given the entry Nc1ccn(C2OC(CO)C(O)C2(F)F)c(=O)n1 (stereo unspecified) + Cc1cncc(-c2nc(NCCc3c[nH]c4ccccc34)c3ncn(C(C)C)c3n2)c1 , would its reported viability, T/C be below 80%?
[out] Y

[in] Given the entry CC1COCCN1c1cc(C2(S(C)(=N)=O)CC2)nc(-c2ccnc3[nH]ccc23)n1 (stereo unspecified) + CC(CO)NC(=O)c1cc(-c2ccc(Cl)cc2)nn(-c2cnn(C)c2)c1=O , would its reported viability, T/C be below 80%?
[out] Y

[in] Given the entry CC(C)c1c(-c2ccccc2)nc2c(C#N)c[nH]n2c1=O + Cc1cncc(-c2nc(NCCc3c[nH]c4ccccc34)c3ncn(C(C)C)c3n2)c1 , would its reported viability, T/C be below 80%?
[out] N

[in] Given the entry COc1cc(C2c3cc4c(cc3C(OC3OC5COC(C)OC5C(O)C3O)C3COC(=O)C23)OCO4)cc(OC)c1O (stereo unspecified) + Cc1cncc(-c2nc(NCCc3c[nH]c4ccccc34)c3ncn(C(C)C)c3n2)c1 , would its reported viability, T/C be below 80%?
[out] Y

[in] Given the entry NS(=O)(=O)OCC1CC(n2ccc3c(NC4CCc5ccccc54)ncnc32)CC1O (stereo unspecified) + CC(CO)NC(=O)c1cc(-c2ccc(Cl)cc2)nn(-c2cnn(C)c2)c1=O , would its reported viability, T/C be below 80%?
[out] Y

[in] Given the entry O=C(c1cc(Cc2n[nH]c(=O)c3ccccc23)ccc1F)N1CCN(C(=O)C2CC2)CC1 + Cc1ccccc1N=Nc1ccc(NC(=O)c2ccnn2C)c(C)c1 , would its reported viability, T/C be below 80%?
[out] N

[in] Given the entry CC1(C)CCC(CN2CCN(c3ccc(C(=O)NS(=O)(=O)c4ccc(NCC5CCOCC5)c([N+](=O)[O-])c4)c(Oc4cnc5[nH]ccc5c4)c3)CC2)=C(c2ccc(Cl)cc2)C1 + Cc1cncc(-c2nc(NCCc3c[nH]c4ccccc34)c3ncn(C(C)C)c3n2)c1 , would its reported viability, T/C be below 80%?
[out] N

[in] Given the entry CC1(C)CCC(CN2CCN(c3ccc(C(=O)NS(=O)(=O)c4ccc(NCC5CCOCC5)c([N+](=O)[O-])c4)c(Oc4cnc5[nH]ccc5c4)c3)CC2)=C(c2ccc(Cl)cc2)C1 + CC(CO)NC(=O)c1cc(-c2ccc(Cl)cc2)nn(-c2cnn(C)c2)c1=O , would its reported viability, T/C be below 80%?
[out] N

[in] Given the entry COc1ccc([C@@H](O)c2cc(-c3ncnc4cc(N5CCOCC5)ccc34)c(F)cc2Cl)nn1 + Cc1cncc(-c2nc(NCCc3c[nH]c4ccccc34)c3ncn(C(C)C)c3n2)c1 , would its reported viability, T/C be below 80%?
[out] Y

[in] Given the entry COc1cccc2c1C(=O)c1c(O)c3c(c(O)c1C2=O)CC(O)(C(=O)CO)CC3OC1CC(N)C(O)C(C)O1 (stereo unspecified) + Cc1cncc(-c2nc(NCCc3c[nH]c4ccccc34)c3ncn(C(C)C)c3n2)c1 , would its reported viability, T/C be below 80%?
[out] Y

[in] Given the entry COc1cc(Nc2ncc3c(n2)-c2ccc(Cl)cc2C(c2c(F)cccc2OC)=NC3)ccc1C(=O)O + CC(CO)NC(=O)c1cc(-c2ccc(Cl)cc2)nn(-c2cnn(C)c2)c1=O , would its reported viability, T/C be below 80%?
[out] Y

[in] Given the entry Nc1ccccc1NC(=O)c1ccc(CNC(=O)OCc2cccnc2)cc1 + Cc1cncc(-c2nc(NCCc3c[nH]c4ccccc34)c3ncn(C(C)C)c3n2)c1 , would its reported viability, T/C be below 80%?
[out] Y

[in] Given the entry O=C(c1cc(Cc2n[nH]c(=O)c3ccccc23)ccc1F)N1CCN(C(=O)C2CC2)CC1 + Cc1cncc(-c2nc(NCCc3c[nH]c4ccccc34)c3ncn(C(C)C)c3n2)c1 , would its reported viability, T/C be below 80%?
[out] N

---

System: 653999-131-R-J2-PDC complex spheroids, growth % test/control
procedure text: Anticancer human tumor 653999-131-R-J2-PDC cell line growth inhibition [AhR];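 further: spheroids exposed to agents for seven days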;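 on viability, T/C: 100% = DMSO vehicle control viability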
run conditions: second compound 0.1 µM; first compound 0.1 µM; stronger effect = lower value
One threshold, 80%, splits the recorded viability, T/C values: lower ones are 1, equal or higher ones are 0.

[in] Given the entry COc1cc(C2c3cc4c(cc3C(OC3OC5COC(C)OC5C(O)C3O)C3COC(=O)C23)OCO4)cc(OC)c1O (stereo not given) + Cc1ccccc1N=Nc1ccc(NC(=O)c2ccnn2C)c(C)c1 , would its reported viability, T/C be below 80%?
[out] 1

[in] Given the entry COc1cccc2c1C(=O)c1c(O)c3c(c(O)c1C2=O)CC(O)(C(=O)CO)CC3OC1CC(N)C(O)C(C)O1 (stereo not given) + Cc1cncc(-c2nc(NCCc3c[nH]c4ccccc34)c3ncn(C(C)C)c3n2)c1 , would its reported viability, T/C be below 80%?
[out] 1

[in] Given the entry CC(C)c1c(-c2ccccc2)nc2c(C#N)c[nH]n2c1=O + Cc1cncc(-c2nc(NCCc3c[nH]c4ccccc34)c3ncn(C(C)C)c3n2)c1 , would its reported viability, T/C be below 80%?
[out] 0

[in] Given the entry CC1(C)CCC(CN2CCN(c3ccc(C(=O)NS(=O)(=O)c4ccc(NCC5CCOCC5)c([N+](=O)[O-])c4)c(Oc4cnc5[nH]ccc5c4)c3)CC2)=C(c2ccc(Cl)cc2)C1 + Cc1ccccc1N=Nc1ccc(NC(=O)c2ccnn2C)c(C)c1 , would its reported viability, T/C be below 80%?
[out] 0

---

Tested on: 653999-131-R-J2-PDC complex spheroids, growth % test/control
procedure text: Anticancer human tumor 653999-131-R-J2-PDC cell line growth inhibition [AhR];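 further: spheroids exposed to agents for seven days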
run conditions: curve of first compound; second compound 10 µM
assay metric: IC50

// returns IC50 for NS(=O)(=O)OCC1CC(n2ccc3c(NC4CCc5ccccc54)ncnc32)CC1O (stereo unspecified) + CC(CO)NC(=O)c1cc(-c2ccc(Cl)cc2)nn(-c2cnn(C)c2)c1=O with 653999-131-R-J2-PDC complex spheroids, growth % test/control; value = > 10 µM

// returns IC50 for Nc1ncn(C2CC(O)C(CO)S2)c(=O)n1 (stereo unspecified) + CC(CO)NC(=O)c1cc(-c2ccc(Cl)cc2)nn(-c2cnn(C)c2)c1=O with 653999-131-R-J2-PDC complex spheroids, growth % test/control; value = > 0.3 µM

// returns IC50 for Nc1ncn(C2CC(O)C(CO)S2)c(=O)n1 (stereo unspecified) + Cc1cncc(-c2nc(NCCc3c[nH]c4ccccc34)c3ncn(C(C)C)c3n2)c1 with 653999-131-R-J2-PDC complex spheroids, growth % test/control; value = > 0.3 µM

// returns IC50 for COc1cc(Nc2ncc3c(n2)-c2ccc(Cl)cc2C(c2c(F)cccc2OC)=NC3)ccc1C(=O)O + Cc1cncc(-c2nc(NCCc3c[nH]c4ccccc34)c3ncn(C(C)C)c3n2)c1 with 653999-131-R-J2-PDC complex spheroids, growth % test/control; value = > 10 µM

// returns IC50 for O=C(c1cc(Cc2n[nH]c(=O)c3ccccc23)ccc1F)N1CCN(C(=O)C2CC2)CC1 + Cc1ccccc1N=Nc1ccc(NC(=O)c2ccnn2C)c(C)c1 with 653999-131-R-J2-PDC complex spheroids, growth % test/control; value = > 10 µM

// returns IC50 for COc1ccc([C@@H](O)c2cc(-c3ncnc4cc(N5CCOCC5)ccc34)c(F)cc2Cl)nn1 + Cc1cncc(-c2nc(NCCc3c[nH]c4ccccc34)c3ncn(C(C)C)c3n2)c1 with 653999-131-R-J2-PDC complex spheroids, growth % test/control; value = > 10 µM

---

Tested on: 653999-131-R-J2-PDC complex spheroids, growth % test/control
procedure text: Anticancer human tumor 653999-131-R-J2-PDC cell line growth inhibition [AhR];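 further: spheroids exposed to agents for seven days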
run conditions: curve of first compound; second compound 10 µM
assay metric: IC50

IC50 reported for this compound CC[C@@]1(O)C(=O)OCc2c1cc1n(c2=O)Cc2cc3c(CN(C)C)c(O)ccc3nc2-1 + Cc1ccccc1N=Nc1ccc(NC(=O)c2ccnn2C)c(C)c1 : > 0.1 µM

IC50 reported for this compound CC(C)c1c(-c2ccccc2)nc2c(C#N)c[nH]n2c1=O + Cc1cncc(-c2nc(NCCc3c[nH]c4ccccc34)c3ncn(C(C)C)c3n2)c1 : > 10 µM

IC50 reported for this compound O=C(C=Cn1cnc(-c2cc(C(F)(F)F)cc(C(F)(F)F)c2)n1)NNc1cnccn1 + CC(CO)NC(=O)c1cc(-c2ccc(Cl)cc2)nn(-c2cnn(C)c2)c1=O : > 3 µM
